TESTED TARGET: human PGI2 receptors (hIP) (Homo sapiens)
Construct: expressed in transfected cells; host or cells: CHO-K1
Sequence (P43119 whole entry): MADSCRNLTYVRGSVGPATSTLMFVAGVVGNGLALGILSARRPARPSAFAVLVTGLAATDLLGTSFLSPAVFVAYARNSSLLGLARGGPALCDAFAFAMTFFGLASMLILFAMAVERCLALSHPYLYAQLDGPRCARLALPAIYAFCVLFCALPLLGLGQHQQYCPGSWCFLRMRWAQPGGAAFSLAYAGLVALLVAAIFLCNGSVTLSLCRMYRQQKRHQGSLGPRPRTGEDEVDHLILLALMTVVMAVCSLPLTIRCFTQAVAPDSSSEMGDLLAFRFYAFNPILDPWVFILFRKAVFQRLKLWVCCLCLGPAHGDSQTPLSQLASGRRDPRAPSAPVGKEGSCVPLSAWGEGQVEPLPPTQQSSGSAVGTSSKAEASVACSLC
ASSAY NOTES: Method C: effect on epoprostenol-cAMP production curve in CHO/hIP cells (left shift value)
Assay type: cell-based
CONDITIONS: Table 4, concentration of test compound that halves the EC50 of epoprostenol
Reported left shift value maps to class as: LOW = under 8 µM, MID = from 8 µM up to 40 µM, HIGH = 40 µM and over

{"COMPOUND": "CC(C)(C)n1nnnc1C1c2ccc(F)cc2SC2Cc3ccccc3CN21 (centres unmarked) [Example 7]", "TESTED TARGET": "human PGI2 receptors (hIP) (Homo sapiens)", "CATEGORY LABEL": "MID"}
{"COMPOUND": "COc1ccc(C(c2nnnn2C(C)(C)C)N2CCc3ccccc3C2)c(F)c1 (centres unmarked) [Example 8]", "TESTED TARGET": "human PGI2 receptors (hIP) (Homo sapiens)", "CATEGORY LABEL": "LOW"}
{"COMPOUND": "CC(C)(C)n1nnnc1C(C1=CC=CC1)N1CCc2ccccc2C1 (centres unmarked) [Example 31]", "TESTED TARGET": "human PGI2 receptors (hIP) (Homo sapiens)", "CATEGORY LABEL": "LOW"}
{"COMPOUND": "CCOc1ccccc1C(C1=NNCN1C(C)(C)C)N1CCc2ccc(O)cc2C1 (centres unmarked) [Example 56]", "TESTED TARGET": "human PGI2 receptors (hIP) (Homo sapiens)", "CATEGORY LABEL": "HIGH"}
{"COMPOUND": "CC(C)(C)n1nnnc1C(c1ccccc1[N+](=O)[O-])N1CCc2ccc(F)cc2C1 (centres unmarked) [Example 30]", "TESTED TARGET": "human PGI2 receptors (hIP) (Homo sapiens)", "CATEGORY LABEL": "HIGH"}
{"COMPOUND": "CC(C)(C)n1nnnc1C(c1ccc(Cl)cc1)N1CCc2ccccc2C1 (centres unmarked) [Example 10]", "TESTED TARGET": "human PGI2 receptors (hIP) (Homo sapiens)", "CATEGORY LABEL": "HIGH"}
{"COMPOUND": "CC(C)(C)n1nnnc1C(c1ccccc1O)N1CCc2ccccc2C1 (centres unmarked) [Example 57]", "TESTED TARGET": "human PGI2 receptors (hIP) (Homo sapiens)", "CATEGORY LABEL": "LOW"}
{"COMPOUND": "CC(C)(C)n1nnnc1C(c1ccco1)N1CCc2ccccc2C1 (centres unmarked) [Example 33]", "TESTED TARGET": "human PGI2 receptors (hIP) (Homo sapiens)", "CATEGORY LABEL": "MID"}
{"COMPOUND": "Cc1ccc(C(c2nnnn2C(C)(C)C)N2CCc3ccccc3C2)cc1 (centres unmarked) [Example 9]", "TESTED TARGET": "human PGI2 receptors (hIP) (Homo sapiens)", "CATEGORY LABEL": "MID"}
{"COMPOUND": "COc1csc(C(c2nnnn2C(C)(C)C)N2CCc3ccccc3C2)c1 (centres unmarked) [Example 44]", "TESTED TARGET": "human PGI2 receptors (hIP) (Homo sapiens)", "CATEGORY LABEL": "LOW"}
{"COMPOUND": "COc1ccccc1C(c1nnnn1C(C)(C)C)N1CCc2ccccc2C1 (centres unmarked) [Example 51]", "TESTED TARGET": "human PGI2 receptors (hIP) (Homo sapiens)", "CATEGORY LABEL": "LOW"}
{"COMPOUND": "Cc1ccc2c(c1)CN(C(c1ccccc1C)c1nnnn1C(C)(C)C)CC2 (centres unmarked) [Example 24]", "TESTED TARGET": "human PGI2 receptors (hIP) (Homo sapiens)", "CATEGORY LABEL": "HIGH"}
{"COMPOUND": "Cc1ccccc1C(c1nnnn1C1(C)CCCCCC1)N1CCc2ccccc2C1 (centres unmarked) [Example 46]", "TESTED TARGET": "human PGI2 receptors (hIP) (Homo sapiens)", "CATEGORY LABEL": "HIGH"}
{"COMPOUND": "CC(C)(C)n1nnnc1C(c1c[nH]c2ccccc12)N1CCc2ccccc2C1 (centres unmarked) [Example 36]", "TESTED TARGET": "human PGI2 receptors (hIP) (Homo sapiens)", "CATEGORY LABEL": "LOW"}
{"COMPOUND": "Cc1ccccc1C(c1nnnn1C1(C)CCCCC1)N1CCc2ccccc2C1 (centres unmarked) [Example 42]", "TESTED TARGET": "human PGI2 receptors (hIP) (Homo sapiens)", "CATEGORY LABEL": "MID"}
{"COMPOUND": "Cc1ccc(C(c2nnnn2C(C)(C)C)N2CCc3ccccc3C2)cc1 (centres unmarked) [Example 3]", "TESTED TARGET": "human PGI2 receptors (hIP) (Homo sapiens)", "CATEGORY LABEL": "HIGH"}
{"COMPOUND": "CSc1ccccc1C(c1nnnn1C(C)(C)C)N1CCc2ccccc2C1 (centres unmarked) [Example 13]", "TESTED TARGET": "human PGI2 receptors (hIP) (Homo sapiens)", "CATEGORY LABEL": "LOW"}
{"COMPOUND": "CSc1ccccc1C(c1nnnn1C1(C)CCCCCC1)N1CCc2ccccc2C1 (centres unmarked) [Example 47]", "TESTED TARGET": "human PGI2 receptors (hIP) (Homo sapiens)", "CATEGORY LABEL": "MID"}
{"COMPOUND": "COc1ccccc1C(c1nnnn1C1C2CC3CC(C2)CC1C3)N1CCc2ccccc2C1 (centres unmarked) [Example 20]", "TESTED TARGET": "human PGI2 receptors (hIP) (Homo sapiens)", "CATEGORY LABEL": "MID"}
{"COMPOUND": "COc1cc2ccccc2cc1C(c1nnnn1C(C)(C)C)N1CCc2ccccc2C1 (centres unmarked) [Example 23]", "TESTED TARGET": "human PGI2 receptors (hIP) (Homo sapiens)", "CATEGORY LABEL": "HIGH"}
{"COMPOUND": "CC(C)(C)n1nnnc1C(c1ccc(O)cc1)N1CCc2ccccc2C1 (centres unmarked) [Example 5]", "TESTED TARGET": "human PGI2 receptors (hIP) (Homo sapiens)", "CATEGORY LABEL": "MID"}
{"COMPOUND": "CC(C)(C)n1nnnc1C(c1ccccc1F)N1CCc2ccccc2C1 (centres unmarked) [Example 54]", "TESTED TARGET": "human PGI2 receptors (hIP) (Homo sapiens)", "CATEGORY LABEL": "LOW"}
{"COMPOUND": "CC(C)(C)n1nnnc1C(c1ccccc1OCc1ccccc1)N1CCc2ccccc2C1 (centres unmarked) [Example 1]", "TESTED TARGET": "human PGI2 receptors (hIP) (Homo sapiens)", "CATEGORY LABEL": "MID"}
{"COMPOUND": "COc1cc[nH]c1C(c1nnnn1C(C)(C)C)N1CCc2ccccc2C1 (centres unmarked) [Example 43]", "TESTED TARGET": "human PGI2 receptors (hIP) (Homo sapiens)", "CATEGORY LABEL": "LOW"}
{"COMPOUND": "CC(C)(C)n1nnnc1C(c1ccc(Br)cc1)N1CCc2ccccc2C1 (centres unmarked) [Example 4]", "TESTED TARGET": "human PGI2 receptors (hIP) (Homo sapiens)", "CATEGORY LABEL": "MID"}
{"COMPOUND": "CC(C)(C)n1nnnc1C(C1=CCC=C1)N1CCc2ccccc2C1 (centres unmarked) [Example 32]", "TESTED TARGET": "human PGI2 receptors (hIP) (Homo sapiens)", "CATEGORY LABEL": "MID"}
{"COMPOUND": "CC(C)(C)n1nnnc1C(c1ccccc1N)N1CCc2ccccc2C1 (centres unmarked) [Example 26]", "TESTED TARGET": "human PGI2 receptors (hIP) (Homo sapiens)", "CATEGORY LABEL": "HIGH"}
{"COMPOUND": "COc1ccc(C(c2nnnn2C(C)(C)C)N2CCc3ccccc3C2)c(OC)c1 (centres unmarked) [Example 12]", "TESTED TARGET": "human PGI2 receptors (hIP) (Homo sapiens)", "CATEGORY LABEL": "MID"}
{"COMPOUND": "Cc1ccccc1C(c1nnnn1C(C)(C)C)N1CCc2ccccc2C1 (centres unmarked) [Example 55]", "TESTED TARGET": "human PGI2 receptors (hIP) (Homo sapiens)", "CATEGORY LABEL": "MID"}

Origin of the recorded values: patent US20160368895A1
